target: T1, His-tagged P3028 peptide (PGE73) (human); assay: PEPSCAN ELISA, peptide on card
T1 construct: albumin-derived peptide, in solution at 0.5 ug/mL; not shown: His-tag
T1 peptide: VFDEFKPLVEEPQNLIK
Result type: RAMPO Score
Give bare numbers.

Some solved cases for reference:
KKLDTFFVKLSLVTER [SEQ ID NO: 374 KKLDTFFVKLSLVTER]
446
KKGDTFFVKLSLFTER [SEQ ID NO: 287 KKGDTFFVKLSLFTER]
563
KKLDTFFVKLNLFTER [SEQ ID NO: 347 KKLDTFFVKLNLFTER]
451

Now for a further binder.
Exercise: Can you share its RAMPO Score? I mean this binder: KKQDTFFVKLSLFTER [SEQ ID NO: 293 KKQDTFFVKLSLFTER]
Solution: 473
